Data origin: patent US20140087995A1

// reported Ratio hCT/hAmylin binding for each item listed
Biological target: T1, human calcitonin receptor (human, UniProt P30988 25-474)
T1 construct: whole, on cells; Assay used cell membranes, not intact cells; also called hCTR; hCT
T1 sequence (looked up): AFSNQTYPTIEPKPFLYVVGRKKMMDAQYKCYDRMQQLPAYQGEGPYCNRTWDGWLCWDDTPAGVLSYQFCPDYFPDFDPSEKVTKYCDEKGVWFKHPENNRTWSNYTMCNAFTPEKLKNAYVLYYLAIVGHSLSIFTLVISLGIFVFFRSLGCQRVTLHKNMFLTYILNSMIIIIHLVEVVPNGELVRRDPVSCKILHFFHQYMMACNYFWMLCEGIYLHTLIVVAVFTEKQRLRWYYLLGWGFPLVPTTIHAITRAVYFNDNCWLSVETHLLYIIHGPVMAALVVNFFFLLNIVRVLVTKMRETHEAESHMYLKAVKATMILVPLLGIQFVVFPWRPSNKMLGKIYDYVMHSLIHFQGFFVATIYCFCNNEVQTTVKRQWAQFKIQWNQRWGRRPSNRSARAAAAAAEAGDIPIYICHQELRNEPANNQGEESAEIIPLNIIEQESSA
Experiment: ratio IC50 hCTR / IC50 hAmylin-R (reference: human amylin receptor), SPA competition assays
Numbered stars: 1 amine (or outer) side, 2 acyl side, 3 side chain; on linkers, the order of the positions; unused ones are H or OH. Bridge positions count the residues as written; N and C are the ends. Side chains are listed from the residue outwards. Ends that are not written are not given here. * marks the point of attachment. C20 diacid = O=C(O)CCCCCCCCCCCCCCCCCCC(=O)*; γGlu = O=C(O)[C@H](CCC(=O)[*:2])N[*:1]
assay-metric: Ratio hCT/hAmylin binding

>  <binder>
K([γGlu-γGlu-C20 diacid])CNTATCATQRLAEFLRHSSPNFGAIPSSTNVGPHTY-NH2 (disulfide 2-7 (inferred))

>  <observed-measurement>
27.3

$$$$
>  <binder>
{C20 diacid-γGlu}-GRCNTATCATQRLAAFLRHSSPNFGAIPSSTNVGPNTY-NH2 (disulfide 3-8)

>  <observed-measurement>
26.5

$$$$
>  <binder>
K([γGlu-γGlu-C20 diacid])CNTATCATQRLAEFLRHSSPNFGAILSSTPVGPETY-NH2 (disulfide 2-7 (inferred))

>  <observed-measurement>
22.6

$$$$
>  <binder>
K([γGlu-C20 diacid])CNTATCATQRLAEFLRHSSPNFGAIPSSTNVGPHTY-NH2 (disulfide 2-7)

>  <observed-measurement>
21.2

$$$$
